pIC50 listing for selected compounds.
- assayed system: Patr-A*03∶01 (Pan troglodytes)
- Construct: expressed in transfected cells; host or cells: K562 or 721.221 cells
- measurement description: cell-based peptide-binding-competition-assay, Patr-A*03∶01
- Parameters: species or system chimpanzee (Pan troglodytes)
- reported conditions: competition with 500nM biotinylated indicator peptide […]; MHC class I transfected K562 or 721.221 cells; overnight; europium-streptavidin DELFIA; regression curves of three independent experiments
Scale: pIC50 equals -log10([C]), with [C] in mol/L.

INSERT INTO assay_data (structure_smiles_string, outcome_measure, obs_value) VALUES
  ('CC(C)C[C@H](NC(=O)[C@@H](NC(=O)[C@H](C)NC(=O)[C@H](C)N)[C@@H](C)O)C(=O)NCC(=O)N[C@@H](Cc1ccccc1)C(=O)NCC(=O)N[C@@H](C)C(=O)N[C@@H](Cc1ccc(O)cc1)C(=O)O', 'pIC50', 6.70);

Here is the next item to consider.
Briefly, pIC50 measured for `CSCC[C@H](NC(=O)[C@H](Cc1ccc(O)cc1)NC(=O)[C@H](C)NC(=O)CNC(=O)[C@H](Cc1ccccc1)NC(=O)CNC(=O)[C@@H](N)CC(C)C)C(=O)N[C@@H](CO)C(=O)N[C@@H](CCCCN)C(=O)O` : 7.52
